Value source: patent US10654845B2

Test Method Notes: log P by HPLC on reversed-phase column (C18), EEC Directive 79/831 Annex V.A8
Conditions: reversed-phase HPLC column (C18), pH 7.8, logP-neutral, LC-MS neutral range, pH 7.8, C18, 55° C.
Rule: chromatographic logP below 2 gives 1.0. Equal to or above 2 gives 0.0.

{"Molecule": "CCS(=N)(=O)c1ccc(S(=O)(=O)CC)c(-c2nc3cc(C(F)(F)F)ncc3n2C)n1 (stereo not drawn) [Example 41]", "Discrete Label": 1.0}
{"Molecule": "CCS(=O)(=O)c1ccc(/S(C)=N/C#N)nc1-c1nc2cc(C(F)(F)F)ncc2n1C (stereo not drawn) [Example 43]", "Discrete Label": 1.0}
{"Molecule": "CCS(=O)(=O)c1ccc(/C=C/C2CC2)nc1-c1nc2cc(C(F)(F)F)ncc2n1C [Example 40]", "Discrete Label": 0.0}
{"Molecule": "CCSc1ccc(S(=O)(=O)CC)c(-c2nc3cc(C(F)(F)F)ncc3n2C)n1 [Example 5]", "Discrete Label": 0.0}
{"Molecule": "CCS(=O)(=O)c1ccc(NC(=O)C(C)C)nc1-c1nc2cc(C(F)(F)F)ncc2n1C [Example 16]", "Discrete Label": 0.0}
{"Molecule": "CCS(=O)(=O)c1ccc(C(=O)OC)nc1-c1nc2cc(C(F)(F)F)ncc2n1C [Example 12]", "Discrete Label": 0.0}
{"Molecule": "CCOc1ccc(S(=O)(=O)CC)c(-c2nc3cc(C(F)(F)F)ncc3n2C)n1 [Example 10]", "Discrete Label": 0.0}

====

Quick reference for logP-neutral among some molecules
Test Method Notes: log P by HPLC on reversed-phase column (C18), EEC Directive 79/831 Annex V.A8
Conditions: pH 7.8
Description: Called log P (HCOOH) in the table. Called log P (neutral) in the table.

{"Item Smiles": "CCS(=O)(=O)c1ccc(Oc2cc(C(F)(F)F)n[nH]2)nc1-c1nc2cc(C(F)(F)F)ncc2n1C", "logP-neutral": 2.69}
{"Item Smiles": "CCS(=O)(=O)c1ccc(NC(=O)c2cccnc2)nc1-c1nc2cc(C(F)(F)F)ncc2n1C", "logP-neutral": 2.12}
{"Item Smiles": "CCS(=O)(=O)c1ccc(NC(=O)CC2CC2)nc1-c1nc2cc(C(F)(F)F)ncc2n1C", "logP-neutral": 2.66}
{"Item Smiles": "CCS(=O)(=O)c1ccc(NC(=O)CSC)nc1-c1nc2cc(C(F)(F)F)ncc2n1C", "logP-neutral": 2.38}

====

Test Method Notes: log P by HPLC on reversed-phase column (C18), EEC Directive 79/831 Annex V.A8
Conditions: reversed-phase HPLC column (C18), pH 7.8, log P (neutral), preparation examples; neutral range, pH 7.8

{"Molecule": "CCS(=O)(=O)c1ccc(C(=O)NC)nc1-c1nc2cc(C(F)(F)F)ncc2n1C", "chromatographic logP": 1.96}
{"Molecule": "CC[S+]([O-])c1ccc(S(=O)(=O)CC)c(-c2nc3cc(C(F)(F)F)ncc3n2C)n1 (stereo not drawn)", "chromatographic logP": 2.02}
{"Molecule": "CCS(=O)(=O)c1ccc(NC(C)=O)nc1-c1nc2cc(C(F)(F)F)ncc2n1C", "chromatographic logP": 2.01}
